Origin of the recorded values: patent US12172983B2

Assignment: determine reported pIC50 for the given compounds.
biological target: EGFR (L858R T790M C797S) (Homo sapiens, UniProt P00533, C797S/L858R/T790M); assay: Biochemical EGFR inhibition assay (Caliper mobility shift), EGFR LRTMCS mutant; conditions: inhibitory activity against EGFR LRTMCS mutant; apparent IC50; read-out: Ext Enz LRTMCS
Sequence (P00533 25-1210 T790M/C797S/L858R): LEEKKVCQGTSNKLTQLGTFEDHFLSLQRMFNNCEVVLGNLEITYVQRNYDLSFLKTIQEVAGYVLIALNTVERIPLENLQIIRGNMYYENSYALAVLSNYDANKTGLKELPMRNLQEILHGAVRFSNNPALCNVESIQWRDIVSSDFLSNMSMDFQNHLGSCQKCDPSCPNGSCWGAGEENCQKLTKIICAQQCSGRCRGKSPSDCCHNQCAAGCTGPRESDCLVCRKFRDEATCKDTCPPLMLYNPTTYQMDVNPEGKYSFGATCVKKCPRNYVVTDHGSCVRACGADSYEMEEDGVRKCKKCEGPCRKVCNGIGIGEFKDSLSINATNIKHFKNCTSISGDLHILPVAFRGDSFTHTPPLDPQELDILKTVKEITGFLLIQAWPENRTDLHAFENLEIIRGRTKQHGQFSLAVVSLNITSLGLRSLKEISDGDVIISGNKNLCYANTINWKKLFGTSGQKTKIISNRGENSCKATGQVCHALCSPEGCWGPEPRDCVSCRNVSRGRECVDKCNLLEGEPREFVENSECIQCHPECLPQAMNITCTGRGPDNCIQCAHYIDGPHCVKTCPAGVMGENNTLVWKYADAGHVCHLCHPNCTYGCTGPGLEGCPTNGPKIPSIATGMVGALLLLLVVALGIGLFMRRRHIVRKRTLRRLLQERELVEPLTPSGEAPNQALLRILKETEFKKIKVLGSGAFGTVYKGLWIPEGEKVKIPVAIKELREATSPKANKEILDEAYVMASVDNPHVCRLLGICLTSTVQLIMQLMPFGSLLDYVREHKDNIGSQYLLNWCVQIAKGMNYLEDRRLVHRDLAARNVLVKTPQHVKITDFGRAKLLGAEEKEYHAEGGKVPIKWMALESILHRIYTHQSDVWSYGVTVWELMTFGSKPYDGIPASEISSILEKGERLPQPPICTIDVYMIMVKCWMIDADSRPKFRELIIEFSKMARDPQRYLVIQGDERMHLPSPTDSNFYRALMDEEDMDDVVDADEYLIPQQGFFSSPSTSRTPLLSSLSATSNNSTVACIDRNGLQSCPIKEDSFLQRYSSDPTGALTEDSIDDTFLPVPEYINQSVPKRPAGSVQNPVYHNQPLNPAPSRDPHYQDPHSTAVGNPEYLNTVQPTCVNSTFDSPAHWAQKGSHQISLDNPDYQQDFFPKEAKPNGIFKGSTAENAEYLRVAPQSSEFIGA
pIC50: −log10 of the molar value.

IN: Given `CC(C)c1ccc(N2CC(CS(C)(=O)=O)C2)c2cnc(Nc3ccnc(N4CCC5(CCO5)CC4)n3)cc12` , state its recorded pIC50.
OUT: ≥ 7.82

IN: Given CO[C@@H]1CN(c2nccc(Nc3cc4c(C(C)C)ccc(N5C[C@H](CS(C)(=O)=O)[C@H]5C)c4cn3)n2)CC[C@@H]1O (single isomer, unassigned) , state its recorded pIC50.
OUT: ≥ 7.82

IN: Given CC(C)c1ccc(N2CC(CS(=O)(=O)C(F)F)C2)c2cnc(Nc3ccnc(N4CC[C@@H](O)[C@@](C)(F)C4)n3)cc12 (single isomer, unassigned) , state its recorded pIC50.
OUT: ≥ 7.82

IN: Given `[2H]C([2H])([2H])O[C@H]1CCN(c2nccc(Nc3cc4c(C5CC5)ccc(N5C[C@H](CS(C)(=O)=O)[C@H]5C)c4cn3)n2)C[C@H]1F` , state its recorded pIC50.
OUT: ≥ 7.82

IN: Given CC(C)c1ccc(N2CC(CS(C)(=O)=O)C2)c2cnc(Nc3ccnc(N4CC[C@](C)(O)[C@](C)(F)C4)n3)cc12 (single isomer, unassigned) , state its recorded pIC50.
OUT: ≥ 7.82

IN: Given `CC(C)c1ccc(N2C[C@H](CS(C)(=O)=O)[C@H]2C)c2cnc(Nc3ccnc(N4CC[C@H](O)[C@H](F)C4)n3)cc12` , state its recorded pIC50.
OUT: ≥ 7.82

IN: Given `CC(C)c1ccc(N2C[C@H](CS(C)(=O)=O)[C@H]2C)c2cnc(Nc3ccnc(N4CC[C@H](OCCN(C)C)[C@H](F)C4)n3)cc12` , state its recorded pIC50.
OUT: ≥ 7.82

IN: Given CC(C)c1ccc(N2C[C@H](CS(C)(=O)=O)[C@H]2C)c2cnc(Nc3ccnc(N4CC[C@](C)(O)[C@H](O)C4)n3)cc12 (single isomer, unassigned) [Compound 101] , state its recorded pIC50.
OUT: ≥ 7.82

IN: Given `CC(C)c1ccc(N2CC(CS(C)(=O)=O)C2)c2cnc(Nc3ccnc(N4CC[C@@H](OCCO)[C@@H](F)C4)n3)cc12` , state its recorded pIC50.
OUT: ≥ 7.82

IN: Given `CC(C)c1ccc(N2CC(CS(C)(=O)=O)C2)c2cnc(Nc3ccnc(N4CCC(C)(O)CC4)n3)cc12` , state its recorded pIC50.
OUT: ≥ 7.82

IN: Given CCS(=O)(=O)C[C@H]1CN(c2ncc(C(C)C)c3cc(Nc4ccnc(N5CC[C@@H](OC)[C@@H](O)C5)n4)ncc23)[C@@H]1C (single isomer, unassigned) , state its recorded pIC50.
OUT: ≥ 7.82

IN: Given `CO[C@@H]1CCN(c2nncc(Nc3cc4c(C(C)C)ccc(N5CC(CS(C)(=O)=O)C5)c4cn3)n2)C[C@@H]1F` , state its recorded pIC50.
OUT: ≥ 7.82
